Target: T1, full-length Sudan GP (GPFL) (Sudan virus (SUDV), UniProt Q7T9D9 33-650)
T1 construct: also called Sudan GPFL; GP(S)FL
T1 sequence: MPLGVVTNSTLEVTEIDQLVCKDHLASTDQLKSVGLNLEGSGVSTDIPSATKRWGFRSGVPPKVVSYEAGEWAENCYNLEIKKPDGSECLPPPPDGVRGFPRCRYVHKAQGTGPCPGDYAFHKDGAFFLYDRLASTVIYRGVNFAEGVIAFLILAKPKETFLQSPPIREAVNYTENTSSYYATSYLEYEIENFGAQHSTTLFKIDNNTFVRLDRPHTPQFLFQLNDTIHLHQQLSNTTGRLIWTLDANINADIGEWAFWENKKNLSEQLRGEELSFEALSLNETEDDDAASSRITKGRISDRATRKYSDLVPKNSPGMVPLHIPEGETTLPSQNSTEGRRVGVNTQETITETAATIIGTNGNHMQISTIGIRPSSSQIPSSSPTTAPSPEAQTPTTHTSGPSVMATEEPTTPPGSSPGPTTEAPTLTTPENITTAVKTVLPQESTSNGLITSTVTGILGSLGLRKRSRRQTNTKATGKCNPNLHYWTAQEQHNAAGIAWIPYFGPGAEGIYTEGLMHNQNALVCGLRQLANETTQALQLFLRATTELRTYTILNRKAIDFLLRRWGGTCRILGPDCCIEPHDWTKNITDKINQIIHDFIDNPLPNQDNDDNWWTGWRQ
Test: BLI, Fab, pH 7.4
Kd under 20 nM gets Satisfied, anything at or over 20 nM gets Not satisfied.

Record excerpt, results attached:
**Query** Lab log: compare recorded Kd with 20 nM; is it strictly lower for Fab generated from 541S (Fab, V domains shown, also called 541S Fab) VH: QVQLVQSGAEVKKPGASVKVSCKASGYTFTNYAITWVRQAPGQGLEWMGWISAFNGQINYAQKFQGRVAMTTDTSTSTAYMELRSLRSDDTAVYYCARAPPMWFSGAKFDYWGQGTLVTVSS VL: QSVLTQPPSVSGTPGQRVTISCSGSSSNIGSNTVNWYQQLPGTAPKLLIYSNDQRPSGVPDRFSGSKSGTSASLAISGLRSEDEADYYCAAWDETLRRVFGGGTRLTVL ?
**Result** Not satisfied

**Query** Lab log: compare recorded Kd with 20 nM; is it strictly lower for Fab generated from 573S (Fab, V domains shown, also called 573S Fab) VH: EVQLVESGGGLVKPGGSLRLSCAASGFTFSSYTMNWVRQAPGKGLEWVSCIRSSSSDKYYADSVKGRFTISRDNTKNSLYLQMNSLRADDTAVYYCARDLGGANNRYYFDYGMDVWGQGTTVTVSS VL: EIVMTQSPATLSVSPGGRATLSCRASQSVYTNLAWYQQKPGQAPRLLIYDASTRATGIPARFSGSGSGTEFTLTISSLQCEDFAVYYCQHYNNWPLYTFGQGTKLEIK ?
**Result** Not satisfied

**Query** Lab log: compare recorded Kd with 20 nM; is it strictly lower for Fab generated from 233S (Fab, V domains shown) VH: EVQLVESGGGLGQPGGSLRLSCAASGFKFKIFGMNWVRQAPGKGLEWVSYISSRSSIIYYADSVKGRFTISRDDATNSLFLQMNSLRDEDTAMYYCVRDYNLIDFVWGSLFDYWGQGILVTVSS VL: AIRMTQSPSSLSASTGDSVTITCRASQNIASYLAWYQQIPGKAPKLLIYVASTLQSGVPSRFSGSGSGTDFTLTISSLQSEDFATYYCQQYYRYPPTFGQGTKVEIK ?
**Result** Satisfied

Now consider the entry below.
**Query** Lab log: compare recorded Kd with 20 nM; is it strictly lower for Fab generated from 294S (Fab, V domains shown, also called 294S Fab) VH: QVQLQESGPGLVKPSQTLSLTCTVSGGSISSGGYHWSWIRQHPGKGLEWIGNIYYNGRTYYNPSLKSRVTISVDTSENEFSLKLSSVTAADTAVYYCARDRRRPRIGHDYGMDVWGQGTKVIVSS VL: DIQMTQSPSSLSASVGDRVTISCRASQSISNFLNWYQQKPGQAPKLLIYTASNLQSGVPSRFSGSGSGTDFTLTISSLQPEDFATYYCQQIYNTGMYSFGQGTKLEIK ?
**Result** Satisfied
